Test system: Providencia rettgeri S-121
method: Microbroth dilution (MHB) method, NCCLS M7-A2
Format: cell-based
assayConditions: Providencia rettgeri, S121, Pr S-121, inoculum 5 x 10^5 cfu/ml, 35 °C/18 hr, read-out: MIC
propertyLabel: MIC
Show the value, then the unit it is measured in.

Asked: Write down MIC measured for item O=C(O)c1cn(C2CC2)c2c(F)c(N3CCC(n4ccnn4)C3)c(F)c(O)c2c1=O (stereo not shown) [Example 50]
Given back: 0.06 µg/mL

Asked: Give MIC for O=C(O)c1cn(C2CC2)c2cc(N3CCNCC3)c(F)cc2c1=O [Ciprofloxacin, reference compound]
Given back: 0.015 µg/mL

Asked: Note down MIC recorded for O=C(O)c1cn(C2CC2)c2c(F)c(N3CCC(n4ncnn4)C3)c(F)cc2c1=O (stereo not shown) [Example 51]
Given back: 0.12 µg/mL

Asked: Read off the recorded MIC for Cc1cn(C2CCN(c3c(F)c(C)c4c(=O)c(C(=O)O)cn(C5CC5)c4c3F)C2)nn1 (stereo not shown) [Example 21]
Given back: 0.12 µg/mL

###

Tested on: Enterobacter cloacae S-130
method: Microbroth dilution (MHB) method, NCCLS M7-A2
Format: cell-based
assayConditions: Enterobacter cloacae, S130, Ecl S-130, inoculum 5 x 10^5 cfu/ml, 35 °C/18 hr, read-out: MIC
propertyLabel: MIC (µg/mL)
Write the answer as a number in µg/mL, unit excluded.

Asked: Check the records and state MIC for Cc1cn(C2CCN(c3c(F)cc4c(=O)c(C(=O)O)cn(C5CC5)c4c3F)C2)nn1 (centres unmarked)
Given back: 1

Asked: Annotate the compound C[C@H]1COc2c(N3CCC(n4ccnn4)C3)c(F)cc3c(=O)c(C(=O)O)cn1c23 (single isomer, unassigned; (-)) with its measured MIC.
Given back: 1

Asked: Specify MIC for Nc1c(F)c(N2CCC(n3cc(-c4ccccc4)nn3)C2)c(F)c2c1c(=O)c(C(=O)O)cn2C1CC1 (centres unmarked) and stop.
Given back: 16

Asked: Output measured MIC for this item: NCc1cnnn1C1CCN(c2c(F)cc3c(=O)c(C(=O)O)cn(C4CC4)c3c2F)C1 (centres unmarked)
Given back: 0.25

Asked: Assign MIC to the following record: Cc1c(F)c(N2CCC(n3cc(-c4ccccc4)nn3)C2)c(F)c2c1c(=O)c(C(=O)O)cn2C1CC1 (centres unmarked)
Given back: 4

Asked: Write down MIC measured for item O=C(O)c1cn(C2CC2)c2c(F)c(N3CCC(n4ccnn4)C3)c(F)c(O)c2c1=O (centres unmarked)
Given back: 2

Asked: Supply measured MIC of C[C@H]1COc2c(N3CCC(n4cncn4)C3)c(F)cc3c(=O)c(C(=O)O)cn1c23 (single isomer, unassigned; (-)) in your reply.
Given back: 1

Asked: Indicate its recorded MIC; the compound in question is Cc1cn(C2CCN(c3c(F)c(C)c4c(=O)c(C(=O)O)cn(C5CC5)c4c3F)C2)nn1 (centres unmarked)
Given back: 0.25

Asked: Please report MIC for the following compound: O=C(O)c1cn(C2CC2)c2c(F)c(N3CCC(n4cncn4)C3)c(F)cc2c1=O (centres unmarked)
Given back: 0.25

Asked: Give recorded MIC. O=C(O)c1cn(C2CC2)c2c(F)c(N3CCC(n4ccnn4)C3)c(F)c(F)c2c1=O (centres unmarked)
Given back: 0.5

Asked: Identify MIC associated with the compound COc1c(N2CCC(n3cncn3)C2)c(F)cc2c(=O)c(C(=O)O)cn(C3CC3)c12 (centres unmarked)
Given back: 0.5

Asked: Give the reported MIC for this compound. Cc1nnn(C2CCN(c3c(F)cc4c(=O)c(C(=O)O)cn(C5CC5)c4c3F)C2)c1C (centres unmarked)
Given back: 2

Asked: Give the reported MIC for this compound. Cc1c(F)c(N2CCC(n3cncn3)C2)c(F)c2c1c(=O)c(C(=O)O)cn2C1CC1 (centres unmarked)
Given back: 0.25

Asked: Report MIC, nothing else, for this compound: O=C(O)c1cn(C2CC2)c2c(F)c(N3CCC(n4nncc4C(=O)O)C3)c(F)cc2c1=O (centres unmarked)
Given back: 32

Asked: Look up and report measured MIC for this entry: Cc1cn(C2CCN(c3c(F)c(N)c4c(=O)c(C(=O)O)cn(C5CC5)c4c3F)C2)nn1 (centres unmarked)
Given back: 0.25

Asked: Please list MIC recorded for the compound Nc1cn(C2CCN(c3c(F)cc4c(=O)c(C(=O)O)cn(C5CC5)c4c3F)C2)nn1 (centres unmarked)
Given back: 1

Asked: Input COc1c(N2CCC(n3ccnn3)C2)c(F)cc2c(=O)c(C(=O)O)cn(C3CC3)c12 (centres unmarked) , output reported MIC.
Given back: 0.5

Values compiled from patent EP0561850B1.
